- SYSTEM UNDER TEST: Histone deacetylase 2 (Homo sapiens, UniProt Q92769)
- Sequence (Q92769 whole entry): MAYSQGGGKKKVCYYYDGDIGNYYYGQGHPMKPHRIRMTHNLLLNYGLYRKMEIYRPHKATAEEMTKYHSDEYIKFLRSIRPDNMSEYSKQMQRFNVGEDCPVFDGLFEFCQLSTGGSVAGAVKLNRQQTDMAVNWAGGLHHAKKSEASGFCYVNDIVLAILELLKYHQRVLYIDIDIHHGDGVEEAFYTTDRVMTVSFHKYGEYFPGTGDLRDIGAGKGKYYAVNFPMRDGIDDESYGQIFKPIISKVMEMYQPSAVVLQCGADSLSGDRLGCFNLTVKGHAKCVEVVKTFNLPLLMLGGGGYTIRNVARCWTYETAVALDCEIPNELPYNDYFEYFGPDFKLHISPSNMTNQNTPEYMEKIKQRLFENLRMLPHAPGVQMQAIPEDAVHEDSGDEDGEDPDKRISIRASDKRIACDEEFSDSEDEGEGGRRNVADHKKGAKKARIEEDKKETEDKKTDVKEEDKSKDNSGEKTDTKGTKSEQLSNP
- EXPERIMENT DESCRIPTION: Inhibition of human recombinant HDAC2 by Michaelis-Menten equation analysis
MEASURED ATTRIBUTE: Ki (nM)

>  <MOLECULE>
CCC(C)c1cccc(O)c(=O)c1 (stereo unspecified)

>  <Ki (nM)>
0.22

$$$$
>  <MOLECULE>
O=c1cc(C2CCCC2)cccc1O

>  <Ki (nM)>
0.04

$$$$
>  <MOLECULE>
CC(C)c1cccc(=O)c(O)c1 [HINOKITIOL]

>  <Ki (nM)>
15.4

$$$$

1 = O=c1c(O)ccccc1-c1ccccc1
2 = COc1ccc(OC)c(-c2ccccc(O)c2=O)c1
**Query** Between 1 and 2 , whose recorded Ki is greater? // caller expects the label of the chosen entry
**Result** 2
(2: 0.42 nM, 1: 0.26 nM)

---

- SYSTEM UNDER TEST: Histone deacetylase 4 (Homo sapiens, UniProt P56524)
- Sequence (P56524 whole entry): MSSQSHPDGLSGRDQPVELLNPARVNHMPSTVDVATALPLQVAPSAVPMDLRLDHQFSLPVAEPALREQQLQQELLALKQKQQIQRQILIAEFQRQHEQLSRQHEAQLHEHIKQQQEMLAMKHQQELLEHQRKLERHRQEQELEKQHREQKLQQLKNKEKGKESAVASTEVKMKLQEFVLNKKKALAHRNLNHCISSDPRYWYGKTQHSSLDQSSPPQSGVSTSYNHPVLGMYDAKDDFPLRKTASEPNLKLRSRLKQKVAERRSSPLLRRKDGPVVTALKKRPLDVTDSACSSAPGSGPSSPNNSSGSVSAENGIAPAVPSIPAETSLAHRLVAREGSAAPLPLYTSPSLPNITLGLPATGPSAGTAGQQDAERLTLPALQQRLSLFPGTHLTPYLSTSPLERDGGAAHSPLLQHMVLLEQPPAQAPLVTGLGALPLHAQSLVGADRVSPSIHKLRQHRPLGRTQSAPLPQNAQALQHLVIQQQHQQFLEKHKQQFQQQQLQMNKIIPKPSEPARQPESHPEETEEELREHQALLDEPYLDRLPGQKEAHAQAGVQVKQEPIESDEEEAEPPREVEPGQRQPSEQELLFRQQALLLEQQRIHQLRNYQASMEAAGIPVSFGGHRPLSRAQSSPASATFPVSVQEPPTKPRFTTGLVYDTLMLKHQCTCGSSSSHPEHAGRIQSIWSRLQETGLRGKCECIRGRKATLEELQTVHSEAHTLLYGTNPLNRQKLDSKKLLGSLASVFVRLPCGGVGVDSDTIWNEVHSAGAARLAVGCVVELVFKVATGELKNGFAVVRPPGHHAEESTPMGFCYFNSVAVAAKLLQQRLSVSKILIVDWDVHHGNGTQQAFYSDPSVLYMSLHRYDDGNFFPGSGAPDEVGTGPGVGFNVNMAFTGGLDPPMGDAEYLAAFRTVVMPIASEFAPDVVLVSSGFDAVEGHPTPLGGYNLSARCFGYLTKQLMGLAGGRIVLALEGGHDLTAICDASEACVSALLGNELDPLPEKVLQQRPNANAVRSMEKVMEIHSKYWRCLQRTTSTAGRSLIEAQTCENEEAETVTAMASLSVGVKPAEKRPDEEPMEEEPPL
- EXPERIMENT DESCRIPTION: Inhibition of human recombinant HDAC4 by Michaelis-Menten equation analysis
MEASURED ATTRIBUTE: Ki (µM)

>  <COMPOUND>
CC(C)(C)c1cccc(O)c(=O)c1

>  <Ki (µM)>
0.806

$$$$

a = CCC(C)c1cccc(O)c(=O)c1 (configuration not stated)
b = O=c1cc(-c2ccccc2)cccc1O
**Query** Lab note: check whether a or b shows the higher recorded Ki. Write down the label of the entry you select.
**Result** b

---

- SYSTEM UNDER TEST: Histone deacetylase 8 (Homo sapiens)
- Sequence (Q9BY41 whole entry): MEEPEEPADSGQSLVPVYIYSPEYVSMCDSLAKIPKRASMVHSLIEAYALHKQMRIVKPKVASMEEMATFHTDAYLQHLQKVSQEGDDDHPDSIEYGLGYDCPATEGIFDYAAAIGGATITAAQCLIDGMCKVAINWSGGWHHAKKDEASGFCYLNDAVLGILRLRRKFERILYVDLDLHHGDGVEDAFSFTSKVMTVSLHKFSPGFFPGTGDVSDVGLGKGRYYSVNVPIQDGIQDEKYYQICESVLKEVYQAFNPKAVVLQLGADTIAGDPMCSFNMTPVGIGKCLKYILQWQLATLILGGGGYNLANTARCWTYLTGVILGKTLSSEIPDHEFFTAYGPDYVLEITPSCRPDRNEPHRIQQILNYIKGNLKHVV
- EXPERIMENT DESCRIPTION: Inhibition of human recombinant HDAC8 by Michaelis-Menten equation analysis
pKi: −log10 of the molar value.
MEASURED ATTRIBUTE: pKi

>  <ITEM SMILES>
COc1ccc(OC)c(-c2cccc(O)c(=O)c2)c1

>  <SYSTEM UNDER TEST>
Histone deacetylase 8 (Homo sapiens)

>  <MEASURED ATTRIBUTE>
pKi

>  <REPORTED VALUE>
6.57

$$$$
>  <ITEM SMILES>
COc1ccc(OC)c(-c2ccccc(O)c2=O)c1

>  <SYSTEM UNDER TEST>
Histone deacetylase 8 (Homo sapiens)

>  <MEASURED ATTRIBUTE>
pKi

>  <REPORTED VALUE>
6.09

$$$$
>  <ITEM SMILES>
O=c1cc(C2CCCC2)cccc1O

>  <SYSTEM UNDER TEST>
Histone deacetylase 8 (Homo sapiens)

>  <MEASURED ATTRIBUTE>
pKi

>  <REPORTED VALUE>
6.91

$$$$

1 = O=c1cc(-c2ccccc2)cccc1O
2 = O=c1c(O)ccccc1-c1ccc2ccccc2c1
3 = CC(C)(C)c1cccc(O)c(=O)c1
**Query** # ascending order, key=pKi Quick reminder: the answer is the labels in the order asked.
**Result** 2, 3, 1
(2: 6.73, 3: 7.89, 1: 8.83)
